Measured pKa2, listed per entry.
Excerpt: The following compounds were used as chelating agents in manufacture of cleaning liquids.
API doc: respond with a numeric literal and nothing else, no unit.

# annotated cases, reported pKa2 shown
CC(O)(P(=O)(O)O)P(=O)(O)O [HEDP] ... 2.87
O=C(O)CN(CCN(CC(=O)O)CC(=O)O)CCN(CC(=O)O)CC(=O)O [DTPA, Diethylenetriaminepentaacetic acid] ... 2.38
O=P(O)(O)CN(CCN(CP(=O)(O)O)CP(=O)(O)O)CP(=O)(O)O [EDTPO] ... 2.72
N=C(N)NCCC[C@H](N)C(=O)O [Arginine] ... 9.01
O=C(O)CN(CCN(CC(=O)O)CC(=O)O)CC(=O)O [EDTA, Ethylenediaminetetraacetic acid] ... 2.70

For NCCC(=O)O [ALA, β-Alanine] , what is its reported pKa2?
9.87

Would you mind telling me what pKa2 value was observed for NCC(=O)O [Gly, Glycine] ?
9.78

Quick one: pKa2 of O=C(O)C(O)C(O)C(=O)O (centres unmarked) [Tartaric acid] ?
7.40
